Data credit: patent US20090311257A1

Each entry below lists one item and its recorded Ca flux neutralization at roughly 100 fold molar excess over gastrin (1 nM) value.
target: T1, human gastrin (h-G17) (human, UniProt P01350 76-92); test: cell-based or functional assay
T1 peptide (looked up): QGPWLEEEEEAYGWMDF

In the examples that follow, each entry is paired with its recorded Ca flux neutralization at roughly 100 fold molar excess over gastrin (1 nM).
>>> observed("XPA063 (phage display-derived antibody fragment) (antibody, V domains shown) VH: EVQLVQSGAEVKKPGSSVTVSCKASGGTFDKYAIGWVRQAPGQGLEWMGRIIPSLDLDNSAQKFQDRVTITADKFTTTVYMKLSNLRPEDTAMYYCTRDPLYNWSGSYWGRGTMVTVSS VL: QAVLTQPSSLSASPGASASLTCTLRSGINVGTYRIYWYQQKPGSPPQYLLRYKSDSDKQQGSGVPSRFSGSKDASANAGILLISGLQSEDEADYYCMIWHSSAWVFGGGTKLTVL")
"> 70%"
>>> observed("XPA061 (phage display-derived antibody fragment) (antibody, V domains shown) VH: QVQLVQSGAEVKKPGSSVKVSCKISGGTFSSHAIGWVRQAPGQGLEWIGRIIPSLDLDNSAPKFQDRVTITADKFTNTAYMELRNLRPEDTAFYYCTGDPLYNWTGAHWGRGTMVTVSS VL: QAVLTQPSSLSASPGASASLTCTLRSDINVGTYRIYWYQQKSGSPPQYLLRYRSDSDKQQGSGVPSRFSGSKDASANAGILLISGLQSEDEADYYCMIWHSSAWVFGGGTKVTVL")
"~80%"

Problem: I'd like to know its Ca flux neutralization at roughly 100 fold molar excess over gastrin (1 nM). The binder in question is XPA081 (phage display-derived antibody fragment) (antibody, V domains shown) VH: EVQLVQSGAEVKKPGSSVTVSCKASGGTFDKYAIGWVRQAPGQGLEWMGRIIPSLDLDNSAQKFQDRVTITADKFTTTVYMKLSNLRPEDTAIYYCTRDPLYQWSGSYWGKGTLVTVSS VL: QAVLTQPSSLSASPGASASLTCTLRSDINVGTYRIYWYQQKPGSPPQYLLRYKSDSDKQQGSGVPSRFSGSKDASANAGILLISGLQSGDGADYYCMIWHSSAWVFGGGTKLTVL
Solution: ~80%

Problem: How about XPA067 (parental antibody fragment) (antibody, V domains shown, also called parental (XPA067)) VH: EVQLVQSGAEVKKPGSSVTVSCKASGGTFDKYAIGWVRQAPGQGLEWMGRIIPTLDLANSAQKFQDRVTITADKFTTTVYMELTNLRPEDTAMYYCTRDPLYNWSGSYWGRGTMVTVSS VL: QAVLTQPSSLSASPGASASLTCTLRSGINVGTYRIYWYQQKPGSPPQYLLRYKSDSDKQQGSGVPSRFSGSKDASANAGILLISGLQSEDEADYYCMIWHSSAWVFGGGTKLTVL ?
Solution: ~80%
